Listed variants paired with reported protein stability index
B1: FLOT1 (parent)
chain: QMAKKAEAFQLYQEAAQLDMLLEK

- Variants of: B1
- assay: protein stability index of a GFP-peptide fusion (GPS, HEK-293T) (PSI 1-6); higher = more stable;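 further: lentivirally expressed fusions sorted by FACS into six bins by GFP to DsRed ratio, PSI derived from sequencing read proportions per bin multiplied by bin number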
- settings: c terminus: a fixed tail appended
endpoint: protein stability index

INSERT INTO measurements (change, result) VALUES
  ('K24G', 2.89),
  ('Q17S', 1.88),
  ('K5E', 2.21),
  ('A3P', 1.63),
  ('D19A', 2.65),
  ('M2S', 1.14),
  ('K24P', 3.37),
  ('Y12N', 4.47),
  ('K5L', 3.38),
  ('L18G', 3.8),
  ('A6R', 1.52),
  ('Y12A', 4.22);
